Reference for the values: patent US10092575B2

Property: pEC50; scope: individual molecules
target: human PDE1b enzyme (Homo sapiens (Human), UniProt Q01064); test: PDE1b inhibitory assay (IMAP TR-FRET)
pEC50: −log10 of the molar value.

| molecule | pEC50 |
| --- | --- |
| Cc1cc2c(s1)n(Cc1ccccc1)c(=O)n1ncnc21 | 5.00 to 6.00 |
| O=c1n(Cc2cccc(Cl)c2)c2sccc2c2ncnn12 | 5.00 to 6.00 |
| COc1ccc(Cn2c(=O)n3ncnc3c3c(CN4CCCC(CO)(CC(C)C)C4)csc32)cc1 (stereo not drawn) | 6.00 to 7.00 |
| COc1ccc(Cn2c(=O)n3ncnc3c3c(C)c(CN4CCNCC4)sc32)cc1 | 6.00 to 7.00 |
| COc1ccc(Cn2c(=O)n3ncnc3c3c4c(sc32)CN(C2CS(=O)(=O)C2)CC4)cc1 | 6.00 to 7.00 |
| O=c1n(Cc2ccccc2)c2sccc2c2ncnn12 | 5.00 to 6.00 |
| COc1ccc(Cn2c(=O)n3ncnc3c3c4c(sc32)CNCC4)cc1 | 6.00 to 7.00 |
| CC1(C)Cc2c(sc3c2c2ncnn2c(=O)n3Cc2ccc(Cl)cc2)CO1 | 6.00 to 7.00 |
| COc1ccc(Cn2c(=O)n3ncnc3c3c4c(sc32)CCNC4)cc1 | 6.00 to 7.00 |

* * *

Property: PDE1b (pEC50); scope: individual molecules
target: human PDE1b enzyme (Homo sapiens (Human)); assay: PDE1b inhibitory assay (IMAP TR-FRET); settings: negative log of half-maximal molar inhibitory concentration; 200 nM FAM-cAMP; reported as ranges

| molecule | PDE1b (pEC50) |
| --- | --- |
| COc1ccc(Cn2c(=O)n3ncnc3c3c(C)c(CN4Cc5ccccc5C4)sc32)cc1 [Example 56] | >7 |
| COc1ccc(Cn2c(=O)n3ncnc3c3c4c(sc32)CN(C(=O)[C@@H]2CCOC2)CC4)cc1 [Example 169] | >7 |
| COc1ccc(Cn2c(=O)n3ncnc3c3c4c(sc32)CN(CCCSC)CC4)cc1 [Example 112] | >7 |
| COc1ccc(Cn2c(=O)n3ncnc3c3c(C)c(CNC4CC4)sc32)cc1 [Example 57] | >7 |
| COc1ccc(Cn2c(=O)n3ncnc3c3c(C)c(CN4CCN5CCC[C@H]5C4)sc32)cc1 [Example 75] | >7 |
| COc1ccc(Cn2c(=O)n3ncnc3c3c4c(sc32)CN(CC2(C)COC2)CC4)cc1 [Example 111] | >7 |
| COc1ccc(Cn2c(=O)n3ncnc3c3c4c(sc32)COCC4)cc1 [Example 90] | >7 |
| COc1ccc(Cn2c(=O)n3ncnc3c3c4c(sc32)CNCCC4)cc1 [Example 217] | >7 |
| COc1ccc(Cn2c(=O)n3ncnc3c3c(CN(C)CC4CCOCC4)csc32)cc1 [Example 199] | >7 |
| COc1ccc(Cn2c(=O)n3ncnc3c3cc(CN4CCOCC4)sc32)cc1 [Example 31] | >7 |
| COc1ccc(Cn2c(=O)n3ncnc3c3cc(-c4cc(C(F)(F)F)nn4C)sc32)cc1 [Example 41] | >7 |
| COc1ccc(Cn2c(=O)n3ncnc3c3c(C)c(CN4CCN(C)C(C)C4)sc32)cc1 (centres unmarked) [Example 73] | >7 |
| COc1ccc(Cn2c(=O)n3ncnc3c3c4c(sc32)CN(C(=O)C2CCOC2)CC4(F)F)cc1 (centres unmarked) [Example 166] | >7 |
| COc1ccc(Cn2c(=O)n3ncnc3c3cc(CN4CC5CC4CO5)sc32)cc1 (centres unmarked) [Example 37] | >7 |
| COc1ccc(Cn2c(=O)n3ncnc3c3c(C)c(CN(C)CC4CCOC4)sc32)cc1 (centres unmarked) [Example 59] | >7 |
| COc1ccc(Cn2c(=O)n3ncnc3c3c4c(sc32)CN(CC2COCCO2)CC4)cc1 (centres unmarked) [Example 125] | >7 |
| COc1ccc(Cn2c(=O)n3ncnc3c3c4c(sc32)CN(CC2CCOC2)CC4)c(F)c1 (centres unmarked) [Example 140] | >7 |
